Tested on: cataracts in rats
Assay: Prevention or retardation of cataracts in galactose-fed rats
Format: in vivo, rat
Details: Study Day 3; 30% galactose diet; A,C,E 0.0025%, B,D 0.01%
Reported Number of Eyes Observed, ± values for the following compounds.
Give the value, in units of eyes, as a plain number.

Examples with answers:
# input compound: CSc1ccc2c(c1)C1(CCO2)NC(=O)NC1=O (stereo not shown) [A] ; wanted: its Number of Eyes Observed, ± 0

What Number of Eyes Observed, ± value was documented for this compound, CSc1ccc2c(c1)C1(CCO2)NC(=O)NC1=O (stereo not shown) [B] ? 0

Look at this compound and give its reported Number of Eyes Observed, ±. O=C1NC(=O)C2(CCOc3ccc(F)cc32)N1 (stereo not shown) 0

// next entry
Recorded Number of Eyes Observed, ± for C[S+]([O-])c1ccc2c(c1)C1(CCO2)NC(=O)NC1=O (stereo not shown) , please? 2
